measurement target: 3',5'-cyclic-AMP phosphodiesterase 4B (Homo sapiens)
test protocol: qHTS Assay for Inhibitors of PDE-IV (AID 607); further: % of control where 0% means no effect
condition context: HEK293 ACTOne CNG channel cells, membrane potential fluorescence; series mostly up to 22.9 µM
Records with an inconclusive call do not appear. The source made the active and inactive calls. The call rests on the fitted dose curve; in most records, active means well fitted activation curve with a large enough effect in the main read-out, with a control signal flat (not every such curve was filed as active); inconclusive means small, poorly fitted or top-dose-only effect, or effect the other way, or a change in a side signal; inactive means flat fitted curve, though single readings scatter.
metric: outcome

[[record]]
test_smiles = "O=C(c1ccncc1)N1CCC[C@@]2(CCN(Cc3nccs3)C2)C1"
metric = "outcome"
measurement = "inactive"

[[record]]
test_smiles = "O=[N+]([O-])O[C@H]1CO[C@H]2[C@H]1OC[C@@H]2O[N+](=O)[O-]"
metric = "outcome"
measurement = "inactive"

[[record]]
test_smiles = "CC(=O)[C@@H]1CC[C@H]2[C@H]3CC[C@H]4C[C@@H](O)CC[C@]4(C)[C@@H]3C(=O)C[C@@]12C"
metric = "outcome"
measurement = "inactive"

[[record]]
test_smiles = "CC1=C2[C@@H]3OC(=O)[C@@H](C)[C@@H]3CC[C@]2(C)C=CC1=O"
metric = "outcome"
measurement = "inactive"

[[record]]
test_smiles = "CC(C)CN1CC2(CCN(C(=O)c3ccncc3)CC2)C1"
metric = "outcome"
measurement = "inactive"


Give outcome for all compounds that follow.
1. CN1[C@H]2CC(=O)C[C@@H]1[C@@H](O)C2
2. O=C(Nc1ccccc1)N1CCCC2(CCN(C(=O)Oc3ccccc3)CC2)C1
3. C[C@H]1CC[C@@]2(NC1)O[C@@H]1C[C@H]3[C@@H]4CC=C5C[C@@H](O)CC[C@]5(C)[C@@H]4CC[C@]3(C)[C@@H]1[C@@H]2C
4. CNC[C@H](O)c1ccc(O)cc1
5. CC(C)NC(=O)N1CCCC2(CCN(C(=O)Oc3ccccc3)CC2)C1

1. inactive
2. inactive
3. inactive
4. inactive
5. inactive

---

test protocol: Cellular Toxicity (caspase-3) Renal Proximal Tubule (AID 667);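 further: cells exposed to compound for 16 hours at 37 °C before detection; 0% = DMSO basal and 100% = 10 µM staurosporine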
condition context: renal proximal tubule cells; at 91.7 µM (top of the series), primary cells freshly taken from rat, solvent-only wells 0%, staurosporine 100% unless noted
Activity calls are given as the source filed them. Calls follow the shape of the dose curve; as a rule, active = well fitted activation curve with a large enough effect; inconclusive = small, poorly fitted or top-dose-only effect, or effect the other way; inactive = flat fitted curve, though single readings scatter.
metric: caspase-3 activation

Here are 4 compounds together with their reported answers.
[[record]]
compound = "Cc1ccc(O)c(C)c1"
measurement = "-3.58% [at 91.7 µM] (inactive)"

[[record]]
compound = "CC(Cl)Cl"
measurement = "-1.5% (inactive)"

[[record]]
compound = "C=CCc1ccc2c(c1)OCO2"
measurement = "-2.37% [at 91.7 µM] (inactive)"

[[record]]
compound = "Clc1nc(Cl)nc(Nc2ccccc2Cl)n1"
measurement = "-3.95% (inactive)"


Hi team, please reply with caspase-3 activation for each item in this list.
1. CC(C)(OO)c1ccccc1
2. Nc1ccc(Br)cc1
3. ClC1=C(Cl)C2(Cl)C3C4C=CC(C4)C3C1(Cl)C2(Cl)Cl (configuration not stated)
4. C=C(C)C(=O)OCC1CO1 (configuration not stated)

1: -7.39% (inactive); 2: -0.502% (inactive); 3: -0.505% [at 91.7 µM] (inactive); 4: -4.2% (inactive)

---

Tested on: PC49
test protocol: qHTS profiling for inhibitors of Plasmodium falciparum proliferation (AID 504749);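 further: 0% = DMSO vehicle and full inhibition = artemisinin control; nearly all actives have a fitted effect of over 60% in size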
condition context: P. falciparum in erythrocytes, SYBR Green DNA, 72 h; series mostly up to 28.7 µM
Inconclusive results are not listed. Calls of active or inactive are those of the source. The call rests on the fitted dose curve; in most records, active means well fitted inhibition curve with a large enough effect; inconclusive means small, poorly fitted or top-dose-only effect; inactive means flat fitted curve, though single readings scatter.
metric: outcome

[[record]]
test_smiles = "CNC[C@H](O)c1ccc(O)cc1"
measurement_target = "PC49"
measurement = "inactive"

[[record]]
test_smiles = "CC(C)N(CC[C@@](C(N)=O)(c1ccccc1)c1ccccn1)C(C)C"
measurement_target = "PC49"
measurement = "inactive"

[[record]]
test_smiles = "CC(=O)O[C@H]1CC[C@@]2(C)C(=CC[C@@H]3[C@H]2CC[C@]2(C)C(=O)CC[C@H]32)C1"
measurement_target = "PC49"
measurement = "inactive"

[[record]]
test_smiles = "NCC[C@H](O)C(=O)N[C@H]1C[C@@H](N)[C@@H](O[C@H]2O[C@@H](CN)[C@@H](O)[C@@H](O)[C@@H]2N)[C@@H](O[C@H]2O[C@@H](CO)[C@@H](O)[C@@H]2O)[C@@H]1O"
measurement_target = "PC49"
measurement = "inactive"


---

test protocol: qHTS assay to identify inhibitors of the type 1 interferon - major histocompatibility complex class I in skeletal muscle: Counter screen cell viability and HiBit confirmation (AID 1347412); further: on the % scale 0 is the no-effect control and ±100 the full control effect; nearly all actives have a fitted effect of over 60% in size
condition context: iHSKM muscle cells + IFN-b, HiBiT or CellTiter-Glo, 24 h; Viability; at 45.9 µM (top of the series)
Inconclusive results are not listed. The source made the active and inactive calls. Calls follow the shape of the dose curve; as a rule, active = well fitted inhibition curve with a large enough effect; inconclusive = small, poorly fitted or top-dose-only effect; inactive = no such curve, though single readings can be large or run the other way.
metric: activity change, negative = inhibition

The following molecules have reported results that may help.
[[record]]
molecule = "CC(C)(O)/C=C\\C(=O)[C@](C)(O)[C@H]1[C@H](O)C[C@]2(C)[C@@H]3CC=C4[C@@H](C=C(O)C(=O)C4(C)C)[C@]3(C)C(=O)C[C@@]12C"
measurement = "186% (inactive)"

[[record]]
molecule = "Cc1[nH]ncc1-c1cc2nc([C@@H]3CC4CCN3CC4)[nH]c(=O)c2s1"
measurement = "15.9% (inactive)"

[[record]]
molecule = "CCC1/C=C/C=CCC(C)C(O)[C@@](C)(O)C(=O)C(C)C(O)C(C)C(=O)C(C)C(O)C(C)C=CC(=O)O[C@H]2C(C)C(CC1)O[C@]1(CCC(C)C(CC(C)O)O1)C2C (stereo not given in full)"
measurement = "-23.7% (inactive)"

[[record]]
molecule = "CC(C)[C@]12O[C@H]1[C@@H]1O[C@@]13[C@@]1(C)CCC4=C(COC4=O)[C@@H]1C[C@@H]1O[C@@]13C2=O"
measurement = "4.52% (inactive)"


Now look at this entry.
Name the recorded activity change, negative = inhibition of the item C/C1=C/C[C@@H](/C(C)=C/c2csc(C)n2)OC(=O)C[C@H](O)C(C)(C)C(=O)[C@H](C)[C@@H](O)[C@@H](C)CCC1 in your answer. -15.3% (inactive)

---

test protocol: Cell Viability - LYMP2-003 (AID 965);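 further: cells exposed to compounds for 24 h before reading; nearly all actives have a fitted effect of over 50% in size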; further: potency means the concentration at half of the fitted maximal effect
condition context: LYMP2-003 lymphoblastoid cell viability; series mostly up to 92.2 µM
Inconclusive results are not listed. Calls of active or inactive are those of the source. The call rests on the fitted dose curve; in most records, active means well fitted cell-killing curve with a large enough effect; inconclusive means small, poorly fitted or top-dose-only effect, or effect the other way; inactive means flat fitted curve, though single readings scatter.
metric: Potency

[[record]]
molecule = "C1CCC2CCCCC2C1 (stereo not drawn)"
metric = "Potency"
measurement = "inactive"

[[record]]
molecule = "ClC1=C(Cl)C2(Cl)C3C(Cl)C=CC3C1(Cl)C2(Cl)Cl (stereo not drawn)"
metric = "Potency"
measurement = "39.8 µM (active)"

[[record]]
molecule = "OCC1CO1 (stereo not drawn)"
metric = "Potency"
measurement = "inactive"

[[record]]
molecule = "CCN(CC)c1ccccc1"
metric = "Potency"
measurement = "inactive"

[[record]]
molecule = "ClC(Cl)=C(c1ccc(Cl)cc1)c1ccc(Cl)cc1"
metric = "Potency"
measurement = "inactive"


Quick batch: Potency for everything below.
1. O=NN(c1ccccc1)c1ccccc1
2. CCCCOC(=O)c1ccccc1C(=O)OCCCC
3. CCCCCCCC(=O)Cl

1: inactive; 2: inactive; 3: inactive

---

test protocol: Cytotoxicity counterscreen for inhibitors of SARS-CoV-2 cell entry (AID 1645845); further: nearly all actives have a fitted effect of over 50% in size
condition context: cell viability (SARS-CoV-2 entry assay cells); series mostly up to 57.1 µM
Inconclusive results are not listed. Activity calls are given as the source filed them. Calls come from the whole dose curve.
Select the correct class. Options are active, inactive and nothing else.

A selection of reference data follows.
[[record]]
test_smiles = "C=CCN(/C=C1\\C(=O)O[C@@H](COC)[C@]2(C)C1=C(O)C(=O)C1=C2[C@@H](OC(C)=O)C[C@]2(C)C(=O)CC[C@H]12)CC=C"
assigned_class = "inactive"

[[record]]
test_smiles = "Cc1cc(-c2nc3cc(F)ccc3s2)ccc1NC(=O)[C@@H](N)CCCCN"
assigned_class = "active"

[[record]]
test_smiles = "CCS(=O)(=O)c1ccc2oc(-c3ccc4ccccc4c3)nc2c1"
assigned_class = "inactive"

[[record]]
test_smiles = "Cc1cc(I)ccc1Nc1c(C(=O)NOCC2CC2)cc(F)c(F)c1F"
assigned_class = "active"


Pending compound:
# outcome recorded in this test, key = CC#C[C@@H](CC(=O)O)c1ccc(OCc2cccc(-c3ccc(C(F)(F)F)cc3)c2)cc1 inactive

---

For each record, write down the corresponding activity change, negative = inhibition.
test protocol: qHTS Assay for Lipid Storage Modulators (AID 1519); further: on the % scale 0 is the no-effect control and ±100 the full control effect
condition context: Drosophila S3 cells, BODIPY lipid droplet/cell ratio, laser cytometry; at 57.5 µM (top of the series); cells loaded with oleic acid
Records with an inconclusive call do not appear.
Numbers only, in %.

[[record]]
compound = "C=CCN1CC[C@@]2(C)c3cc(O)ccc3CC1[C@@H]2C"
value_units = "%"
measurement = -0.315

[[record]]
compound = "c1ccc(N2CCC3(CCNCC3)CC2)nc1"
value_units = "%"
measurement = 6.81

[[record]]
compound = "CNC(=O)O/N=C(/C)SC"
value_units = "%"
measurement = 3.26

[[record]]
compound = "CCN1C[C@@]2(COC)C3[C@@H](OC)C4[C@@H]1[C@@]3(C1C[C@@]3(O)[C@H](OC(=O)c5ccccc5)C1[C@]4(OC(C)=O)[C@@H](O)[C@@H]3OC)[C@@H](OC)C[C@H]2O (stereo not given in full)"
value_units = "%"
measurement = 0.0984


Could you tell me activity change, negative = inhibition for each of these compounds? They are listed below.
1. COC1C(O)C(OC2CC[C@]3(C=O)C4C(OC(C)=O)C[C@@]5(C)C(C6=CC(=O)OC6)CC[C@]5(O)C4CC[C@]3(O)C2)OC(C)C1OC(C)=O (stereo not given in full)
2. NC(Cn1ccc(=O)[nH]c1=O)C(=O)O (stereo not given)
3. C[C@]12CCC3C(C=CC4=CC(=O)CC[C@]43C)C1CC[C@]2(O)CCC(=O)O (stereo not given in full)
4. C[C@@]12CCC(=O)C[C@@H]1CC[C@@H]1[C@@H]2CC[C@]2(C)C(=O)CC[C@@H]12
5. CN1[C@@H]2CC(OC(=O)[C@H](CO)c3ccccc3)C[C@@H]1[C@H]1O[C@H]12 (stereo not given in full)
6. c1csc(CN2CCC3(CCNCC3)CC2)n1

4.28
-1.49
1.44
6.14
4.98
-2.74

Values from PubChem BioAssay (NCATS)
